assay: qHTS assay to test for compound auto fluorescence at 590 nm (red) in HepG2 cells (AID 720674); settings: HepG2 autofluorescence, red 540/590 nm, 1 h; series mostly up to 91.3 µM; also: % is scaled to controls: 0 for no effect and ±100 for the full control effect
The source made the active and inactive calls. Calls follow the shape of the dose curve; as a rule, active = well fitted curve in the direction sought with a large enough effect in the repeat runs; inconclusive = weak or mixed curves; inactive = flat fitted curve, though single readings scatter.
Parameter: fluorescence, relative to Rose Bengal

Illustrative cases are given below, each with its answer.
[
  {
    "Compound": "O=C(CCC1CCN(Cc2ccccc2)CC1)c1ccc2c(c1)NCCCC2",
    "Result": "inactive"
  },
  {
    "Compound": "CC(C)(C)CC(C)(C)c1ccc(OCCO)cc1",
    "Result": "inactive"
  },
  {
    "Compound": "COCCOC(=O)C1=C(C)NC(C)=C(C(=O)OC/C=C/c2ccccc2)C1c1cccc([N+](=O)[O-])c1 (centres undefined)",
    "Result": "inactive"
  },
  {
    "Compound": "CN1C(=O)CC(C)(c2ccccc2)C1=O (centres undefined)",
    "Result": "inactive"
  },
  {
    "Compound": "Cc1nccn1-c1ccc(Sc2cccc(C3(C(N)=O)CCOCC3)c2)cc1",
    "Result": "inactive"
  }
]

Dear colleague, could you send me fluorescence, relative to Rose Bengal for each of the items below? Thanks.
1. Cc1cc(O)c(C(C)C)cc1Cl
2. COCCOC
3. CCCc1c(OCCCOc2ccc(OCC(=O)O)cc2)ccc(C(C)=O)c1O
4. O=C(N/N=C/c1ccc([N+](=O)[O-])o1)c1ccc(O)cc1
5. O=C(O)c1ccc(CO)o1
6. COc1cc2ncnc(Nc3ccc(F)c(Cl)c3)c2cc1OCCCN1CCOCC1
7. O=C(/C=C/c1ccccc1)OCCCc1ccccc1
8. CC(=O)CC(c1ccc([N+](=O)[O-])cc1)c1c(O)c2ccccc2oc1=O (centres undefined)

inactive
inactive
inactive
-0.334% [at 18.6 µM] (inactive)
inactive
inactive
inactive
-0.182% [at 18.6 µM] (inactive)

Determine its reported fluorescence, relative to Rose Bengal: `CCCCCCCC/C=C\CCCCCCCC(=O)OC(CO)CO` inactive

----------
experiment: qHTS assay to test for compound auto fluorescence at 590 nm (red) in HepG2 cell free culture (AID 720684); settings: cell-free medium autofluorescence, red 540/590 nm; series mostly up to 91.3 µM; also: % is scaled to controls: 0 for no effect and ±100 for the full control effect
Activity calls are given as the source filed them. The call rests on the fitted dose curve; in most records, active means well fitted curve in the direction sought with a large enough effect in the repeat runs; inconclusive means weak or mixed curves; inactive means flat fitted curve, though single readings scatter.
Parameter: fluorescence, % of Rose Bengal

Reference set, count: 8
[
  {
    "Molecule": "O=C(O)C(Cc1cc(I)c(O)c(I)c1)c1ccccc1 (centres undefined)",
    "fluorescence, % of Rose Bengal": "inactive"
  },
  {
    "Molecule": "CC(C)(C)CC(C)(C)c1ccc(OCCO)cc1",
    "fluorescence, % of Rose Bengal": "inactive"
  },
  {
    "Molecule": "C/C=C(\\C)C(=O)OCCC(C)CCC=C(C)C (centres undefined)",
    "fluorescence, % of Rose Bengal": "inactive"
  },
  {
    "Molecule": "[O]=[Bi]",
    "fluorescence, % of Rose Bengal": "-0.0278% [at 3.72 µM] (inactive)"
  },
  {
    "Molecule": "CO[C@H]1O[C@H](CO)[C@@H](O)[C@H](O)[C@H]1O",
    "fluorescence, % of Rose Bengal": "inactive"
  },
  {
    "Molecule": "COC(=O)Nc1nc2ccc(C(=O)c3cccs3)cc2[nH]1",
    "fluorescence, % of Rose Bengal": "inactive"
  },
  {
    "Molecule": "CN1CCN(c2c(F)cc3c(=O)c(C(=O)O)cn4c3c2OCN4C)CC1",
    "fluorescence, % of Rose Bengal": "inactive"
  },
  {
    "Molecule": "O=C(O)c1ccc(CO)o1",
    "fluorescence, % of Rose Bengal": "inactive"
  }
]

Hey, can you go through the list below and give me fluorescence, % of Rose Bengal for every item?
1. O=C(O)Cc1ccc(-c2ccccc2)cc1
2. OCCSc1ccccc1
3. O=C(c1ccc(O)cc1)c1ccc(Cl)cc1
4. N#C[C@@H]1C[C@@H]2C[C@@H]2N1C(=O)[C@@H](N)C12CC3CC(CC(O)(C3)C1)C2
5. Oc1cc(O)c(Cl)cc1Cl
6. CCOC(=N)CC(=O)OCC

1: -0.0701% [at 18.6 µM] (inactive); 2: inactive; 3: inactive; 4: inactive; 5: inactive; 6: inactive
